Target: IRES domain IV hairpin
Experiment: Fluorescence anisotropy competition with Rev-N-rhodamine probe, binding to IRES hairpin
Set-up: species or system HCV
Details: fluorescence anisotropy, 20° C., pH 7.4; read-out: Dissociation constant, IRES
Method: Binding force to each target hairpin RNA (IRES, RRE, TAR and 16S A-site) was measured by fluorescence polarization using alanine scanned peptide library (1b-1h). Particularly, […] of each target RNA was prepared at the concentration of 10 mM, which stood at 65° C. for 10 minutes and then cooled down slowly at room temperature, leading to folding. […] As a probe, rev peptide labeled with rhodamine (Rev-N-rhodamine) emitting […] fluorescence was prepared at the concentration of 10 mM. […]
observable: pKd
Answers are plain numbers, as −log10 of the molar value.

Below: 2 sequences and their reported pKd.
{"columns": ["entry.sequence", "pKd"],
 "data": [
  ["LKKLLKLLKKLWKLAG [2t, tryptophan scanned second generation peptide]", 8.64],
  ["LKKLLKLLKKWLKLAG [2s, tryptophan scanned second generation peptide]", 8.36]
]}

Could you tell me pKd for each of these sequences? They are listed below.
1. LKKLLKLLKKLLKLAG [1h, alanine scanned first generation peptide]
2. LKKLLKLLKKLLKLKG [1a, original amphiphilic 16-mer peptide]
3. LAKLLKLLKKLLKLKG [1b, alanine scanned first generation peptide]

1: 7.31; 2: 7.35; 3: 7.28

Dear reader, for each entry below, please note its pKd.
1. LKKLLKLLAKLLKLKG [1e, alanine scanned first generation peptide]
2. LKKWLKLLKKLLKLAG [2o, tryptophan scanned second generation peptide]
3. LKKLLKLLKKLLALKG [1g, alanine scanned first generation peptide]
4. LKKLLKLWKKLLKLAG [2r, tryptophan scanned second generation peptide]

6.92
8.48
6.68
7.04

Could you report pKd for every entry in the following list?
1. WKKLLKLLKKLLKLAG [2n, tryptophan scanned second generation peptide]
2. LKALLKLLKKLLKLKG [1c, alanine scanned first generation peptide]
3. LKKLLALLKKLLKLKG [peptide 1d, alanine scanned first generation peptide]
4. LKKLLKLLKALLKLKG [1f, alanine scanned first generation peptide]
5. LKKLWKLLKKLLKLAG [2p, tryptophan scanned second generation peptide]
6. LKKLLKWLKKLLKLAG [2q, tryptophan scanned second generation peptide]

9.13
7.21
6.82
7.48
8.55
9.06

Item LKKLLKLLKKLLKWAG [2u, tryptophan scanned second generation peptide] has what recorded pKd?
9.16

The reported numbers originate from patent US8084399B2.
